- Assay System: N-terminally GST-tagged human full length recombinant Mps-1 kinase (Homo sapiens)
- Construct: N-terminally GST-tagged human full length recombinant Mps-1 kinase; purchased Invitrogen, Karslruhe, Germany PV4071
- Assay Name: Mps-1 kinase assay (TR-FRET)
- Assay type: biochemical
- Experimental Setup: Mps1 IC50 [nM], 10 μM ATP, 1 μM peptide substrate, 60 min at 22° C.
- Experimental: The human kinase Mps-1 phosphorylates a biotinylated substrate peptide. Detection of the phosphorylated product is achieved by time-resolved fluorescence resonance energy transfer (TR-FRET) from Europium-labelled anti-phospho-Serine/Threonine antibody as donor to streptavidin labelled with cross-linked allophycocyanin (SA-XLent) as acceptor. Compounds are tested for their inhibition of the kinase activity. […]
IC50 listing for selected compounds.
Reported Metric: IC50 (nM)

compound="Cc1cc(-c2cnc3c(NCC(O)C(F)(F)F)cc(Cl)nn23)ccc1C(=O)NC1CC1 (racemic) [Example 205]" reported_metric=IC50 value_comparator== recorded_result=72.7
compound="Cc1cc(F)cc(Nc2cc(NCC(C)(C)O)c3ncc(-c4ccc(C(=O)NC5CC5)c(C)c4)n3n2)c1 [Example 394]" reported_metric=IC50 value_comparator== recorded_result=0.2
compound="CNC(=O)c1ccc(-c2cnc3c(NCC4CCOCC4)cc(Oc4ccc(F)c(F)c4)nn23)cc1C [Example 567]" reported_metric=IC50 value_comparator=< recorded_result=1
compound="COc1ccc(C)c(Nc2cc(NCCC(F)(F)F)c3ncc(-c4ccc(C(=O)NC5CC5)c(C)c4)n3n2)c1 [Example 430]" reported_metric=IC50 value_comparator== recorded_result=0.3

* * *

- Assay System: N-terminally GST-tagged human full length recombinant Mps-1 kinase (Homo sapiens)
- Construct: N-terminally GST-tagged human full length recombinant Mps-1 kinase; purchased Invitrogen, Karslruhe, Germany PV4071
- Assay Name: Mps-1 kinase assay (TR-FRET)
- Assay type: biochemical
- Experimental Setup: Mps1 IC50 [nM], 10 μM ATP, 1 μM peptide substrate, 60 min at 22° C.
Reported Metric: IC50

molecule=CCNC(=O)c1ccc(-c2cnc3c(NCC4CCOCC4)cc(Oc4ccc(F)c(F)c4)nn23)cc1C recorded_result="< 10 nM"
molecule=Cc1cc(-c2cnc3c(NCC4CCSCC4)cc(Oc4cccc(F)c4F)nn23)ccc1C(=O)NC1CC1 recorded_result="0.4 nM"
molecule=Cc1cc(-c2cnc3c(NCC(C)(C)N)cc(Sc4cccc(F)c4)nn23)ccc1C(=O)NC1CC1 recorded_result="0.2 nM"
molecule=Cc1cc(-c2cnc3c(NCC(C)(C)O)cc(Sc4ccc(Cl)cc4CO)nn23)ccc1C(=O)NC1CC1 recorded_result="2.3 nM"
molecule=Cc1cc(-c2cnc3c(NCC4CCSCC4)cc(Sc4cccc(F)c4)nn23)ccc1C(=O)NC1CC1 recorded_result="0.4 nM"
molecule=Cc1ccc(F)cc1Oc1cc(NCCS(C)(=O)=O)c2ncc(-c3ccc(C(=O)NC4CC4)c(C)c3)n2n1 recorded_result="0.2 nM"
molecule=Cc1cc(-c2cnc3c(NCCO)cc(Sc4cccc(F)c4)nn23)ccc1C(=O)NC1CC1 recorded_result="0.1 nM"
molecule=Cc1cc(-c2cnc3c(NCCC(F)(F)F)cc(Sc4cc(F)ccc4F)nn23)ccc1C(=O)NC1CC1 recorded_result="0.2 nM"
molecule=Cc1cc(-c2cnc3c(NCC(C)(C)O)cc(Oc4ccccc4)nn23)ccc1C(=O)NC1CC1 recorded_result="< 0.7 nM"
molecule=COc1ccc(Oc2cc(NCCS(C)(=O)=O)c3ncc(-c4ccc(C(=O)NC5CC5)c(C)c4)n3n2)c(F)c1 recorded_result="0.1 nM"
molecule=CNC(=O)c1cccc(-c2cc(NCC(C)C)c3ncc(-c4ccc(C(=O)NC5CC5)cc4)n3n2)c1 recorded_result="< 1 nM"
molecule=Cc1cc(-c2cnc3c(NCC(C)(C)O)cc(-c4cccc(CO)c4)nn23)ccc1C(=O)NC1CC1 recorded_result="3.6 nM"
molecule=Cc1cc(-c2cnc3c(NCC(C)(C)O)cc(Sc4ncc[nH]4)nn23)ccc1C(=O)NC1CC1 recorded_result="64.3 nM"
molecule=Cc1cc(-c2cnc3c(NCC(C)(C)N)cc(Oc4ccc(Cl)cc4)nn23)ccc1C(=O)NC1CC1 recorded_result="0.3 nM"
molecule=CNC(=O)c1ccc(-c2cnc3c(NCC4CCOCC4)cc(Oc4ccc(OC)c(F)c4)nn23)cc1C recorded_result="< 1 nM"
molecule=Cc1ccc(F)c(Nc2cc(NCCC(F)(F)F)c3ncc(-c4ccc(C(=O)NC5CC5)c(C)c4)n3n2)c1 recorded_result="0.1 nM"
molecule=CCNC(=O)c1ccc(-c2cnc3c(NCCC(F)(F)F)cc(Oc4ccc(OC)c(F)c4)nn23)cc1C recorded_result="< 1 nM"
molecule=CNC(=O)c1ccc(-c2cnc3c(NCCOC)cc(Oc4cccc(F)c4F)nn23)cc1C recorded_result="< 1 nM"
molecule=Cc1cc(-c2cnc3c(NCC(C)(C)O)cc(Sc4ccccn4)nn23)ccc1C(=O)NC1CC1 recorded_result="30 nM"
molecule=CC(C)CNc1cc(-c2ccnc3ccccc23)nn2c(-c3ccc(C(=O)NC4CC4)cc3)cnc12 recorded_result="5.1 nM"
molecule=Cc1cc(-c2cnc3c(NCCC(N)=O)cc(Oc4cccc(F)c4)nn23)ccc1C(=O)NC1CC1 recorded_result="0.2 nM"
molecule=Cc1cc(-c2cnc3c(NCC4CC(F)(F)C4)cc(Oc4cccc(F)c4)nn23)ccc1C(=O)NC1CC1 recorded_result="0.2 nM"
molecule=Cc1cc(-c2cnc3c(NCC(C)(C)O)cc(Oc4ccc(F)cc4)nn23)ccc1C(=O)NC1CC1 recorded_result="0.3 nM"
molecule=Cc1cc(F)cc(Sc2cc(NCC3CCSCC3)c3ncc(-c4ccc(C(=O)NC5CC5)c(C)c4)n3n2)c1 recorded_result="0.4 nM"
molecule=Cc1cc(-c2cnc3c(NCC4CN(C(=O)OC(C)(C)C)C4)cc(-c4ccccc4CO)nn23)ccc1C(=O)NC1CC1 recorded_result="95.9 nM"
molecule=Cc1ccc(Sc2cc(NCCC(F)(F)F)c3ncc(-c4ccc(C(=O)NC5CC5)c(C)c4)n3n2)c(F)c1 recorded_result="0.2 nM"
molecule=Cc1cc(-c2cnc3c(NCC(C)(C)O)cc(Nc4cccnc4)nn23)ccc1C(=O)NC1CC1 recorded_result="1.2 nM"
molecule=Cc1cc(-c2cnc3c(NCC4CN(C)C4)cc(Oc4cccc(F)c4F)nn23)ccc1C(=O)NC1CC1 recorded_result="0.2 nM"
molecule="Cc1cc(-c2cnc3c(NC[C@H]4CC[S@@+]([O-])CC4)cc(Sc4cccc(F)c4)nn23)ccc1C(=O)NC1CC1 [Example 304A]" recorded_result="< 0.1 nM"
molecule="Cc1cc(-c2cnc3c(NCC(O)CO)cc(Oc4cccc(F)c4)nn23)ccc1C(=O)NC1CC1 (stereo not drawn)" recorded_result="0.1 nM"

* * *

IC50 listing for selected molecules.
- Assay System: N-terminally GST-tagged human full length recombinant Mps-1 kinase (Homo sapiens, UniProt P33981)
- Construct: N-terminally GST-tagged human full length recombinant Mps-1 kinase; purchased Invitrogen, Karslruhe, Germany PV4071
- Sequence (P33981 whole entry): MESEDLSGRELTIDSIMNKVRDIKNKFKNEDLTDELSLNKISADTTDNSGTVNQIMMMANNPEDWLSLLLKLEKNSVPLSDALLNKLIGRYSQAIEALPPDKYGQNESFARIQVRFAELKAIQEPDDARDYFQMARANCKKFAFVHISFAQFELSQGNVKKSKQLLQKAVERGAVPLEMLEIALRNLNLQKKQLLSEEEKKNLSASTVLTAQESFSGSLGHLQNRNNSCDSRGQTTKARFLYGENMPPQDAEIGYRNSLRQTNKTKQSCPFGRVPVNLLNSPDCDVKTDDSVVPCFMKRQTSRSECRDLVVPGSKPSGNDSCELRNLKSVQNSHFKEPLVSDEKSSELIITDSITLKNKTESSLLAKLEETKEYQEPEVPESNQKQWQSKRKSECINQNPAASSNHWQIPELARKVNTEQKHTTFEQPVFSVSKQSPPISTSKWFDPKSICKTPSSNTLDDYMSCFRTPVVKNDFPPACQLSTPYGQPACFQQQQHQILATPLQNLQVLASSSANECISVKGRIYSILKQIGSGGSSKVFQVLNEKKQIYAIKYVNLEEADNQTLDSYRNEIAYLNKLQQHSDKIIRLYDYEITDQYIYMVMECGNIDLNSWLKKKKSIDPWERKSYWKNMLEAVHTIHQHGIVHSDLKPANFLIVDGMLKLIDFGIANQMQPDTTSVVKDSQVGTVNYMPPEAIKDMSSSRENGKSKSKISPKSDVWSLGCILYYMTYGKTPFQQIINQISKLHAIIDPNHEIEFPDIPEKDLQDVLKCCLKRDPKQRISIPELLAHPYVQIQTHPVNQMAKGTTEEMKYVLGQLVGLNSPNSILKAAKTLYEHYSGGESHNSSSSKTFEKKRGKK
- Assay Name: Mps-1 kinase assay (TR-FRET)
- Type: biochemical
- Experimental Setup: Mps1 IC50 [nM], 10 μM ATP, 1 μM peptide substrate, 60 min at 22° C.
Reported Metric: IC50 (nM)

molecule="CC=Cc1cc(NCCC(F)(F)F)c2ncc(-c3ccc(C(=O)NC4CC4)c(C)c3)n2n1 (mixture of isomers) [Example 23]" reported_metric=IC50 recorded_result=2.4
molecule="Cc1ccc(Cl)cc1Nc1cc(NCCC(F)(F)F)c2ncc(-c3ccc(C(=O)NC4CC4)c(C)c3)n2n1 [Example 377]" reported_metric=IC50 recorded_result=0.3
molecule="Cc1cc(-c2cnc3c(NCC(C)(C)O)cc(-c4cncc(C#N)c4)nn23)ccc1C(=O)NC1CC1 [Example 234]" reported_metric=IC50 recorded_result=6.1
molecule="Cc1cc(-c2cnc3c(NCC(C)(C)O)cc(Oc4cncc(C(N)=O)c4)nn23)ccc1C(=O)NC1CC1 [Example 411]" reported_metric=IC50 recorded_result=4.8
molecule="Cc1cc(-c2cnc3c(NCC(C)C)cc(C(=O)NCCO)nn23)ccc1C(=O)NC1CC1 [Example 199]" reported_metric=IC50 recorded_result=6.9
molecule="Cc1cc(-c2cnc3c(NCCC(F)(F)F)cc(Nc4ccccc4)nn23)ccc1C(=O)NC1CC1 [Example 368]" reported_metric=IC50 recorded_result=0.1
molecule="Cc1cc(-c2cnc3c(NCC(C)(C)O)cc(Nc4cccc(C(C)C)c4)nn23)ccc1C(=O)NC1CC1 [Example 385]" reported_metric=IC50 recorded_result=0.9
molecule="Cc1cc(F)cc(Sc2cc(NCCCC(F)(F)F)c3ncc(-c4ccc(C(=O)NC5CC5)c(C)c4)n3n2)c1 [Example 449]" reported_metric=IC50 recorded_result=0.6
molecule="CCNC(=O)c1ccc(-c2cnc3c(NCC4CCOCC4)cc(Oc4ccc(OC)cc4)nn23)cc1C [Example 597]" reported_metric=IC50 recorded_result=1.1
molecule="Fc1ccc(-c2cc(NCCC(F)(F)F)c3ncc(-c4ccc(-c5cnc(C6CC6)[nH]5)cc4)n3n2)cc1 [Example 6]" reported_metric=IC50 recorded_result=43.6
molecule="Cc1cc(-c2cnc3c(NCC(C)(C)N)cc(Oc4cccc(F)c4)nn23)ccc1C(=O)NC1CC1 [Example 314]" reported_metric=IC50 recorded_result=0.2
molecule="Cc1cc(-c2cnc3c(NCC(C)(C)O)cc(Oc4ccn[nH]4)nn23)ccc1C(=O)NC1CC1 [Example 414]" reported_metric=IC50 recorded_result=6.7
molecule="Cc1cc(-c2cnc3c(NCCC(F)(F)F)cc(Oc4cccc(F)c4)nn23)ccc1C(=O)O [Example 550]" reported_metric=IC50 recorded_result=0.5
molecule="Cc1ccc(Sc2cc(NCC(C)(C)O)c3ncc(-c4ccc(C(=O)NC5CC5)c(C)c4)n3n2)c(F)c1 [Example 360]" reported_metric=IC50 recorded_result=0.9
molecule="CSc1cc(NCC(C)(C)O)c2ncc(-c3ccc(C(=O)NC4CC4)c(C)c3)n2n1 [Example 15]" reported_metric=IC50 recorded_result=21.5
